Reported values of Ki for individual entries
# assay.system: HIV-1 protease (Human immunodeficiency virus type 1 group M subtype B, UniProt P04585)
Write the answer as a number in nM, unit excluded.

These recorded examples may help you get a feel for the data.
CC(C)CN(C[C@@H](O)[C@H](Cc1ccccc1)NC(=O)OC1CC2CCO[C@@H]2C1)S(=O)(=O)c1ccc(OC2CCCCO2)c(OC2CCCCO2)c1 (stereo partly drawn); 9.3
CC(C)CN(C[C@@H](O)[C@H](Cc1ccccc1)NC(=O)O[C@H]1CCOC1)S(=O)(=O)c1cncc([N+](=O)[O-])c1; 22

I looked up COc1ccc(S(=O)(=O)N(CC(C)C)CC(O)C(Cc2ccc(OCc3ccccc3)cc2)NC(=O)OC(C)(C)C)cc1 (stereo not drawn) and its Ki for HIV-1 protease (Human immunodeficiency virus type 1 group M subtype B, UniProt P04585) was 4.1
